# system under test: NPFF2R (Homo sapiens, UniProt Q9Y5X5)
# Sequence (Q9Y5X5 whole entry): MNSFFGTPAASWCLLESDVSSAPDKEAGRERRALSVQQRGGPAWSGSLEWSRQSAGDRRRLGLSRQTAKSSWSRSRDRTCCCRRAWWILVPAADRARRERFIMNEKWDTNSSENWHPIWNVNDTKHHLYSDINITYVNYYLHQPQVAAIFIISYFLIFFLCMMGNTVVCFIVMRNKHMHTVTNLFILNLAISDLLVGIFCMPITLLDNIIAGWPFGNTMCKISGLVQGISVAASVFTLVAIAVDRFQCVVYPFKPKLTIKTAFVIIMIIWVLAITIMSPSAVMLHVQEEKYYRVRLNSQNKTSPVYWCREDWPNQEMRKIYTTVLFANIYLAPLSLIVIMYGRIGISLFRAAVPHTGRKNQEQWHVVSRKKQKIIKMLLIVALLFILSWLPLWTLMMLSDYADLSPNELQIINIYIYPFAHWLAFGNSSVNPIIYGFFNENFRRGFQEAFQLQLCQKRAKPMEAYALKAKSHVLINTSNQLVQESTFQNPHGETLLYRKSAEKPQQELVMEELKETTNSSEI
# method description: [35S]-GTPγS binding assay
# Assay type: biochemical
# Parameters: expressed in transfected cells
# test parameters: membranes from CHO-hNPFF2R cells; read-out: NPFF2R (GTPγS) EC50
measurement kind: EC50

Cc1cc(O)cc(C)c1C[C@H](N)C(=O)N[C@H](CCCNC(=N)N)C(=O)N[C@H]1Cc2ccccc2CN(CCC(N)=O)C1=O [KGOP01, reference compound] = > 10 µM

----------
# system under test: human MOPr (Homo sapiens, UniProt P35372);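 as to MOPr (cAMP) Emax: Emax relative to DAMGO as 100%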
# Sequence (P35372 whole entry): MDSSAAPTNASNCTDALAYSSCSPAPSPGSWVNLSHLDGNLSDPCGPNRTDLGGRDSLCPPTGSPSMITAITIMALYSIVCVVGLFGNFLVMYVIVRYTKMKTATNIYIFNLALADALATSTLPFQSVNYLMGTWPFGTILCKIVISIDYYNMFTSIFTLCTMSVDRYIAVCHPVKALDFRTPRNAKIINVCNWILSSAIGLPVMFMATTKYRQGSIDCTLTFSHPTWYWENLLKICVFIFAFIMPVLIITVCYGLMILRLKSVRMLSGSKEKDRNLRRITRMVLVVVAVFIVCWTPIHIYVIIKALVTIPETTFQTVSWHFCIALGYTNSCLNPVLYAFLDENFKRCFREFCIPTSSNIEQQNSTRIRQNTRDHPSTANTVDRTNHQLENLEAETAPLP
# method description: cell-based
# Type: cell-based
# Design: expressed in transfected cells; HEK293-Glo20F cells (cAMP)
# test parameters: read-out: MOPr (cAMP) Emax
Starred links: 1 amine or outer side, 2 acyl side, 3 side chain; linkers in the order of their positions; H or OH if unused. Non-standard residues stand in square brackets, D forms with d. Residues, ends and D or L forms follow the SMILES beside them. Nva(5-(4-Bn-piperidin-1-yl)) = N[C@@H](CCCN1CCC(Cc2ccccc2)CC1)C(=O)O; X1 = O=C1[C@@H](N[*:1])Cc2ccccc2CN1CCC(=O)[*:2]; Dmt = Cc1cc(O)cc(C)c1C[C@H](N)C(=O)O; NMeβAla = CN(CCC(=O)[*:2])[*:1]
compounds and their reported Emax
measurement kind: Emax (%)

Cc1cc(O)cc(C)c1C[C@H](N)C(=O)N[C@H](CCCNC(=N)N)C(=O)N[C@@H](Cc1ccccc1)C(=O)N(C)CC(=O)N[C@@H](CCCN1CCC(Cc2ccccc2)CC1)C(=O)N[C@@H](Cc1ccccc1)C(N)=O [DP0024, H-Dmt-D-Arg-Phe-N(Me)Gly-Bpa-Phe-NH2] (HELM PEPTIDE1{[Cc1cc(O)cc(C)c1C[C@H](N)C(=O)[*:2]].[dR].F.[Sar].[O=C([C@H](CCCN1CCC(Cc2ccccc2)CC1)N[*:1])[*:2]].F.[am]}$$$$V2.0) = 97
Cc1cc(O)cc(C)c1C[C@H](N)C(=O)N[C@H](CCCNC(=N)N)C(=O)N[C@@H](Cc1ccccc1)C(=O)N(C)CCC(=O)N[C@@H](CCCN1CCC(Cc2ccccc2)CC1)C(=O)N[C@@H](Cc1ccccc1)C(N)=O [DP0013, H-Dmt-D-Arg-Phe-N(Me)-β-Ala-Bpa-Phe-NH2] (H-[Dmt][dR]F[NMeβAla][Nva(5-(4-Bn-piperidin-1-yl))]F-NH2) = 115
CC[C@H](C)[C@H](NC(=O)[C@H](CCCN1CCC(Cc2ccccc2)CC1)NC(=O)CCN1Cc2ccccc2C[C@H](NC(=O)[C@@H](CCCNC(=N)N)NC(=O)[C@@H](N)Cc2c(C)cc(O)cc2C)C1=O)C(N)=O [DP0002, H-Dmt-D-Arg-Aba-β-Ala-Bpa-Ile-NH2] (H-[Dmt][dR][X1][Nva(5-(4-Bn-piperidin-1-yl))]I-NH2) = 110

----------
compounds and their reported EC50
# system under test: human MOPr (Homo sapiens, UniProt P35372)
# method description: cell-based
# Format: cell-based
# Design: expressed in transfected cells; HEK293-Glo20F cells (cAMP)
# test parameters: Table 3B; read-out: MOPr (cAMP) EC50
Starred links: 1 amine or outer side, 2 acyl side, 3 side chain; linkers in the order of their positions; H or OH if unused. Non-standard residues stand in square brackets, D forms with d. Residues, ends and D or L forms follow the SMILES beside them. Nva(5-(4-Bn-piperidin-1-yl)) = N[C@@H](CCCN1CCC(Cc2ccccc2)CC1)C(=O)O; X1 = O=C1[C@@H](N[*:1])Cc2ccccc2CN1CCC(=O)[*:2]; Dmt = Cc1cc(O)cc(C)c1C[C@H](N)C(=O)O; dOrn = NCCC[C@@H](N)C(=O)O; dNMeA = CN[C@H](C)C(=O)O
measurement kind: EC50

Cc1cc(O)cc(C)c1C[C@H](N)C(=O)N(C)[C@H](C)C(=O)N[C@H]1Cc2ccccc2CN(CCC(=O)N[C@@H](CCCN2CCC(Cc3ccccc3)CC2)C(=O)N[C@@H](Cc2ccccc2)C(N)=O)C1=O [DP0007, H-Dmt-N(Me)-D-Ala-Aba-β-Ala-Bpa-Phe-NH2] (H-[Dmt][dNMeA][X1][Nva(5-(4-Bn-piperidin-1-yl))]F-NH2) = 40 nM
Cc1cc(O)cc(C)c1C[C@H](N)C(=O)N[C@H](CCCNC(=N)N)C(=O)N[C@H]1Cc2c(ccc3ccccc23)CN(CC(=O)N[C@@H](CCCN2CCC(Cc3ccccc3)CC2)C(=O)N[C@H](C(N)=O)C(C)C)C1=O = 2.8 nM
CC[C@H](C)[C@H](NC(=O)[C@H](CCCN1CCC(Cc2ccccc2)CC1)NC(=O)CCN1Cc2ccccc2C[C@H](NC(=O)[C@@H](CCCNC(=N)N)NC(=O)[C@@H](N)Cc2c(C)cc(O)cc2C)C1=O)C(N)=O [DP0002, H-Dmt-D-Arg-Aba-β-Ala-Bpa-Ile-NH2] (H-[Dmt][dR][X1][Nva(5-(4-Bn-piperidin-1-yl))]I-NH2) = 8.9 nM
Cc1cc(O)cc(C)c1C[C@H](N)C(=O)N[C@H](CCCN)C(=O)N[C@H]1Cc2ccccc2CN(CCC(=O)N[C@@H](CCCN2CCC(Cc3ccccc3)CC2)C(=O)N[C@@H](Cc2ccccc2)C(N)=O)C1=O [DP0028, H-Dmt-D-Orn-Aba-β-Ala-Bpa-Phe-NH2] (H-[Dmt][dOrn][X1][Nva(5-(4-Bn-piperidin-1-yl))]F-NH2) = 40.4 nM
Cc1cc(O)cc(C)c1C[C@H](N)C(=O)N[C@H](CCCNC(=N)N)C(=O)N[C@H]1Cc2ccccc2CN(CCC(=O)N[C@@H](CCCN2CCC(Cc3ccccc3)CC2)C(=O)N[C@@H](CC(C)C)C(N)=O)C1=O [DP0003, H-Dmt-D-Arg-Aba-β-Ala-Bpa-Leu-NH2] (H-[Dmt][dR][X1][Nva(5-(4-Bn-piperidin-1-yl))]L-NH2) = 20.1 nM
Cc1cc(O)cc(C)c1C[C@H](N)C(=O)N[C@H](CCCNC(=N)N)C(=O)N[C@@H](Cc1ccccc1)C(=O)NCCC(=O)N[C@@H](CCCN1CCC(Cc2ccccc2)CC1)C(=O)N[C@@H](Cc1ccccc1)C(N)=O [DP0019, H-Dmt-D-Arg-Phe-β-Ala-Bpa-Phe-NH2] (HELM PEPTIDE1{[Cc1cc(O)cc(C)c1C[C@H](N)C(=O)[*:2]].[dR].F.[bAla].[O=C([C@H](CCCN1CCC(Cc2ccccc2)CC1)N[*:1])[*:2]].F.[am]}$$$$V2.0) = 4 nM

Sourced from patent US20210002231A1
